Assay: folding stability dG unfold (combined trypsin and chymotrypsin); higher = more stable
Endpoint: folding stability dG unfold (kJ/mol)
Your answer should be a plain number; it is taken to be in kJ/mol.

Worked set:
SAGGSAGGSGSSTEVTTTTLPDTSYTTTNSTTTTFSPDQPEAVEAGLPVPSTVTTTTTTSPAGSAGGSAGGS [r20_138_JUSTAS]; 2.47
SAGGSAGGSAGGMTAKEIAEKLGLPPGAKVVKIEYDKETNTFYIVIEVDGELKTYRIDVSAGGSAGGSAGGS [r10_17_TrROS_Hall]; 19.6
SAGGSAGGSAGGPKAPGDKAVPATVEVRVTEYAVVPGLGEKLEKLPEKTFKATFVFFNKSAGGSAGGSAGGS [r10_122_TrMRF]; 1.2

I'd like to know its folding stability dG unfold. The sequence in question is SAGGMPEVKIKVEITEIKVDKETGKTVTIRIKSVEITTADGRKYRVEKEIRIRPDGSIEVKVKVEELPSAGG [r13_917_TrROS_Hall]
15.7

Query: folding stability dG unfold; subject: SAGGSFIKITTKLPNRKIEIPIPDAEIEVEGNTVTITFPPGNAEEVKKAVLEASDEVEITEVKIIDESAGGS [r8_490_JUSTAS]
2.33

Field request: folding stability dG unfold | item: SAGGSMKDIPAEEIAKLFAAKLGYPILDAKVEKNPVKPVYKLYIVVEEKNPGKKFPREITIPSELLSAGGSA [r2_156_TrMRF]
-0.209

I am curious: what folding stability dG unfold value has been reported for SAGGSAGGSAGGSSEPVVILVPVLPDAEEAVVDIGGHPALVKRFPDSPLAAITVPKELLSAGGSAGGSAGGS [r4_430_TrMRF] ?
-0.622

# query: folding stability dG unfold of entry KIKIEPGETVRIKVKVKLPDGEEKEIEIELSLEELEKKLGRPLTPEEILNLIKEEAEKKGFEVEEVEIEKES [r1_338_TrROS_Hall]
4.02

Consider the sequence shown here: SAGGSAGGSDMTMTYIIPLPDYAIVISFKIEITEVEYNPENGKPVKFRFDIEIKIEVFPPGDLSAGGSAGGS [r12_809_TrROS] What is its recorded folding stability dG unfold?
18.3

folding stability dG unfold for SAGGSMIFETLGSEKLIKEKAEERGLDLVEYSVEGNKFFALLKDPAGKLVLTYSDEASVKKLGLDLSKLSAG [r5_12_JUSTAS] ?
1.25

Which measured folding stability dG unfold value corresponds to SAGGSAGGTLKELIDNITRVDPENGKQRMRIPGGAEIEINPEEGQIKIRYYHPGKPQEITLPLPSAGGSAGG [r6_793_TrROS] ?
2.73

Please report the recorded folding stability dG unfold for SAGGSAGGSAGGKMLLIKITTKDGREFTLEISEEEAKKLAEELKKKFPNQKIEVEIVPLKSAGGSAGGSAGG [r7_349_TrROS_Hall] .
13.4

Report folding stability dG unfold for SAGGSAGGSMKTLTLEGESEEEAIEKVKEYFKKKGINYKLLKIEISEKPNGTKIYTIDIDTKKSAGGSAGGS [r12_924_JUSTAS] please.
8.55

Would you mind telling me what folding stability dG unfold value was observed for SAGGSAGKNKPFPLPILIEAHPDDPEEAAERLKAELEALFPGPIKVEIVEVDPEKGIITAIVTVDGSAGGSA [r15_1024_TrMRF] ?
5.5

I am curious: what folding stability dG unfold value has been reported for SAGGSAGGSAGGYFIRINNGRTFPFPSPEDAEEIVKTIARPFGHPDMTIEIYRMPPEQFPSAGGSAGGSAGG [r7_839_TrROS] ?
0.0812

What does the data say about its folding stability dG unfold? Entry: SAGMTVEEVAAEIIASHPPSSTSVTLEVDVGPKPVRVTVEILPDPETGRPVPRVTVTDPNKNVTTEYVVSAG [r5_236_JUSTAS]
-2.64

I have this sequence here, SAGGGPVVLTDPVKTEKSPDGTTYTLTREVFYDPSRGEPLKVRFTLTKVTNYPDGVKTETLEEKEVALSAGG [r13_596_JUSTAS] , and I need its recorded folding stability dG unfold.
4.56
